For MMP-13 (Homo sapiens), measured IC50 is reported for the entries below.
ENDPOINT_LABEL: IC50 (nM)

Consider the worked cases shown below.
CCCCCCCCN1CC(C(=O)O)N(S(=O)(=O)c2ccc(-c3ccc(Br)cc3)cc2)CC1=O (centres unmarked): 2100
CCCCCCCCN1CC(C(=O)O)N(S(=O)(=O)c2ccc(NC(=O)c3ccc(Cl)cc3)cc2)CC1=O (centres unmarked): 24
CCCCCCCCN1CC(C(=O)NO)N(S(=O)(=O)c2ccc(-c3ccc(Br)cc3)cc2)CC1=O (centres unmarked): 7

(a) O=C(O)C1CN(CCCCCCO)C(=O)CN1S(=O)(=O)c1ccc(-c2ccc(Br)cc2)cc1 (centres unmarked)
(b) CCCCCCCCCCN1CC(C(=O)O)N(S(=O)(=O)c2ccc(-c3ccc(Br)cc3)cc2)CC1=O (centres unmarked)
Hey, between a and b which has a smaller measured IC50? Your choice should be expressed through its label.
a
(a: 19 nM, b: 2460 nM)

====

- SYSTEM_TESTED: MMP-1 (Homo sapiens, UniProt P03956)
- Sequence (P03956 100-469): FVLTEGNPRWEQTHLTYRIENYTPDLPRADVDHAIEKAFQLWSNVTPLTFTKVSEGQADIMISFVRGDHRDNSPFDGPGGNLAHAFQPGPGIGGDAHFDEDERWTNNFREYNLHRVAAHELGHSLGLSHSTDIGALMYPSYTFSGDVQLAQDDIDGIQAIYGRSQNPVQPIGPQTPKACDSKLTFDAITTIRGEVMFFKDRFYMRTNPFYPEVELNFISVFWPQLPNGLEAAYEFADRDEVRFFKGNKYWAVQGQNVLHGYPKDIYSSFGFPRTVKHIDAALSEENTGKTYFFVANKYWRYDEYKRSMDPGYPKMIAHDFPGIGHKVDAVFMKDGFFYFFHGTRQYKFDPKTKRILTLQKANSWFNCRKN
pIC50: −log10 of the molar value.
ENDPOINT_LABEL: pIC50

CCCCCCCCN1CC(C(=O)NO)N(S(=O)(=O)c2ccc(-c3ccc(Br)cc3)cc2)CC1=O (stereo not drawn): 7.80

(A) CCCCCCCCN1CC(C(=O)O)N(S(=O)(=O)c2ccc(NC(=O)c3ccc(Cl)cc3)cc2)CC1=O (stereo not drawn)
(B) CCCCCCCCCCN1CC(C(=O)O)N(S(=O)(=O)c2ccc(-c3ccc(Br)cc3)cc2)CC1=O (stereo not drawn)
(C) CCCCCCCCN1CC(C(=O)O)N(S(=O)(=O)c2ccc(-c3ccc(Br)cc3)cc2)CC1=O (stereo not drawn)
(D) CCCCCCN1CC(C(=O)O)N(S(=O)(=O)c2ccc(-c3ccc(Br)cc3)cc2)CC1=O (stereo not drawn)
List from greatest to least pIC50. Ranked list of labels, please, in the requested order.
A, D, C, B

====

Entries below carry reported pIC50 on MMP-2 (Homo sapiens, UniProt P08253).
Sequence (P08253 110-660, species assumed): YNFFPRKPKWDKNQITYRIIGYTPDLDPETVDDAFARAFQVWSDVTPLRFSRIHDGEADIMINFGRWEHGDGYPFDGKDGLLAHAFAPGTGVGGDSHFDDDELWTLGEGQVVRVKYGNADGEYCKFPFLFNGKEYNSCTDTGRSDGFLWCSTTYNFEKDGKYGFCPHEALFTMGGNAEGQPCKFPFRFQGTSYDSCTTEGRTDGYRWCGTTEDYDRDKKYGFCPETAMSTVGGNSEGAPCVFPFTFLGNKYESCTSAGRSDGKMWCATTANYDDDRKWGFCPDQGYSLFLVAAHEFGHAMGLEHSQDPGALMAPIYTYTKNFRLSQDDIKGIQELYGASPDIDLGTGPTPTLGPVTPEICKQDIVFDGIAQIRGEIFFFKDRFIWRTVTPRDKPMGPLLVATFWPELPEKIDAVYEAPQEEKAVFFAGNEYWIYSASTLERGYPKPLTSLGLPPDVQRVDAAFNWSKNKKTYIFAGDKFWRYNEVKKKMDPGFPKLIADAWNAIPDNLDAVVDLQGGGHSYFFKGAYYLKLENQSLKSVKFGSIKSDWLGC
pIC50: −log10 of the molar value.
ENDPOINT_LABEL: pIC50

COc1ccc(S(=O)(=O)N2CC(=O)NCC2C(=O)NO)cc1 (stereo not drawn): 8.40
CCCCCCCCN1CC(C(=O)NO)N(S(=O)(=O)c2ccc(-c3ccc(Br)cc3)cc2)CC1=O (stereo not drawn): 8.70

(1) CCCCCCCCN1CC(C(=O)O)N(S(=O)(=O)c2ccc(NC(=O)c3ccc(Cl)cc3)cc2)CC1=O (stereo not drawn)
(2) O=C(O)C1CN(CCCCCCO)C(=O)CN1S(=O)(=O)c1ccc(-c2ccc(Br)cc2)cc1 (stereo not drawn)
(3) CCCCCCCCC=CCCCCCCCCN1CC(C(=O)O)N(S(=O)(=O)c2ccc(-c3ccc(Br)cc3)cc2)CC1=O (stereo not drawn)
(4) CCCCN1CC(C(=O)O)N(S(=O)(=O)c2ccc(-c3ccc(Br)cc3)cc2)CC1=O (stereo not drawn)
Provide the items ranked by increasing pIC50. // list labels; follow requested order
3, 4, 2, 1

====

- System: HUVEC (human umbilical vein endothelial cell) cells
- ASSAY_NOTES: Tube formation activity on matrigel
- Assay type: cell-based
- Set-up: key: −: control; ±: tube almost resembles control; +: inhibition; ++: significant inhibition; +++: complete inhibition
- TEST_CONTEXT: concentration 50 μM, 16-24 hours
ENDPOINT_LABEL: Tube Formation

C#CCN1CC(C(=O)O)N(S(=O)(=O)c2ccc(-c3ccc(Br)cc3)cc2)CC1=O (stereo not drawn): +++
CCCCCCCCN1CC(C(=O)NO)N(S(=O)(=O)c2ccc(-c3ccc(Br)cc3)cc2)CC1=O (stereo not drawn): +++
COc1ccc(S(=O)(=O)N2CC(=O)N(CCN3CCCCC3)CC2C(=O)NO)cc1.Cl (stereo not drawn): ±
CCCCCCCCCCCCN1CC(C(=O)O)N(S(=O)(=O)c2ccc(-c3ccc(Br)cc3)cc2)CC1=O (stereo not drawn): +
COc1ccc(S(=O)(=O)N2CC(=O)N(CCc3ccccn3)CC2C(=O)NO)cc1 (stereo not drawn): +

Which value of Tube Formation has been reported for COc1ccc(S(=O)(=O)N2CC(=O)N(CCN3CCOCC3)CC2C(=O)NO)cc1.Cl (stereo not drawn) in the records?
+

Now consider CN(C)CCCN1CC(C(=O)O)N(S(=O)(=O)c2ccc(-c3ccc(Br)cc3)cc2)CC1=O (stereo not drawn) .
++

Then what about the compound CCCCCCCCCCN1CC(C(=O)O)N(S(=O)(=O)c2ccc(-c3ccc(Br)cc3)cc2)CC1=O (stereo not drawn) ?
+++

# iterate: CCCCN1CC(C(=O)O)N(S(=O)(=O)c2ccc(OC)cc2)CC1=O (stereo not drawn)
+

Queued: CCCCCCCCN1CC(C(=O)O)N(S(=O)(=O)c2ccc(NC(=O)c3ccc(Cl)cc3)cc2)CC1=O (stereo not drawn)
++

Request: COc1ccc(S(=O)(=O)N2CC(=O)N(Cc3ccccn3)CC2C(=O)NO)cc1.Cl (stereo not drawn)
+

Please do the same for CCCCCCCCN1CC(C(=O)O)N(S(=O)(=O)c2ccc(-c3ccc(Br)cc3)cc2)CC1=O (stereo not drawn) as well.
++

====

- Test system: HUVEC (human umbilical vein endothelial cell) cells
- ASSAY_NOTES: Tube formation activity on matrigel
- Type: cell-based
- Set-up: key: −: control; ±: tube almost resembles control; +: inhibition; ++: significant inhibition; +++: complete inhibition
- TEST_CONTEXT: concentration 5 μM, 16-24 hours
ENDPOINT_LABEL: Tube Formation

Sample answers from the record:
COc1ccc(S(=O)(=O)N2CC(=O)N(CCc3ccccn3)CC2C(=O)NO)cc1 (stereo not drawn) [Example 15]: +
CCCCCCCCN1CC(C(=O)NO)N(S(=O)(=O)c2ccc(-c3ccc(Br)cc3)cc2)CC1=O (stereo not drawn) [Example 32]: ++
COc1ccc(S(=O)(=O)N2CC(=O)NCC2C(=O)NO)cc1 (stereo not drawn) [Example 5]: ±
CCCCCCCCCCCCN1CC(C(=O)O)N(S(=O)(=O)c2ccc(-c3ccc(Br)cc3)cc2)CC1=O (stereo not drawn) [Example 39]: −

Which Tube Formation is reported for this compound? COc1ccc(S(=O)(=O)N2CC(=O)N(Cc3ccccn3)CC2C(=O)NO)cc1.Cl (stereo not drawn) [Example 13]
±

Would you mind doing COc1ccc(S(=O)(=O)N2CC(=O)N(CCN3CCCCC3)CC2C(=O)NO)cc1.Cl (stereo not drawn) [Example 9] as well?
−

Lookup CN(C)CCCN1CC(C(=O)O)N(S(=O)(=O)c2ccc(-c3ccc(Br)cc3)cc2)CC1=O (stereo not drawn) [Example 43]
++

====

- Tested on: HUVEC (human umbilical vein endothelial cell) cells
- ASSAY_NOTES: Tube formation activity on matrigel
- Assay type: cell-based
- Design: key: −: control; ±: tube almost resembles control; +: inhibition; ++: significant inhibition; +++: complete inhibition
- TEST_CONTEXT: concentration 50 μM, 16-24 hours
- Experimental: In a culture flask previously coated with gelatin, HUVEC (human umbilical vein endothelial cell) cells cultured with a M199 medium (containing 20% FBS, 3 ng/ml bFGF, 100 μg/ml heparin) were treated with trypsin/EDTA, and then number of cells are counted so that number of cells may be 2×10^4 cells/well in a 96-well plate previously coated with matrigel. Samples were then added and cultured in a CO2 culture medium at 37° C. for 16-24 hours.
ENDPOINT_LABEL: Tube Formation

CCCCCCN1CC(C(=O)O)N(S(=O)(=O)c2ccc(-c3ccc(Br)cc3)cc2)CC1=O (stereo not drawn): ++
CCCCN1CC(C(=O)O)N(S(=O)(=O)c2ccc(-c3ccc(Br)cc3)cc2)CC1=O (stereo not drawn): ++
CCCCOCCCN1CC(C(=O)O)N(S(=O)(=O)c2ccc(-c3ccc(Br)cc3)cc2)CC1=O (stereo not drawn): +++
O=C(O)C1CN(Cc2ccccc2)C(=O)CN1S(=O)(=O)c1ccc(-c2ccc(Br)cc2)cc1 (stereo not drawn): +++
CCCCCCCCN1CC(C(=O)O)N(S(=O)(=O)c2ccc(-n3cccc3)cc2)CC1=O (stereo not drawn): ++

Now consider the entry below.
Dear colleague, I am looking for the recorded Tube Formation of the following compound: COc1ccc(S(=O)(=O)N2CC(=O)NCC2C(=O)NO)cc1 (stereo not drawn)
+

Where do the numbers come from? From patent US7223751B2.
